Test: small-molecule binders of probe aLefty1, primary screen, biochemical, small-molecule microarray, 635/667 nm fluorescence (AID 1153);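 note: score merges spot fluorescence with signal-to-noise ratio from the scanned slide images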
Details: higher = more signal
reported.property: composite z-score
Answer field: number only, no words.

The compound CCN(CC)c1ccc(N2CC=CC34O[C@@H]5/C=C\CCCOC(=O)C5[C@H]3C(=O)N(CCO)[C@@H]4C2=O)cc1 (stereo not given in full) showed composite z-score equal to 0.0999

So for `CCOC(=O)C[C@H]1[C@H](OC(=O)Cc2ccc3c(c2)OCO3)[C@@H](NC(=O)c2ccc(-c3ccccc3)cc2)c2cc(OCCCO)ccc2N1C(=O)Cc1ccc(OC)cc1` , the logged composite z-score turned out to be 0.123

Kindly note the recorded composite z-score for `O=C1c2ccccc2[C@](Cc2ccccc2I)(C(=O)NC2CC2)[C@H](c2ccc(CO)cc2)N1C1CCCCC1` , which is 0.166

Consider O=C1OCCC=C[C@H]2OC34C=CCN(CCN5CCOCC5)C(=O)[C@H]3N(CCCCCCO)C(=O)[C@@H]4C12 (stereo not given in full) . Its measured composite z-score is -0.286

So, COc1ccc(C(O)C2C=CC3C(=O)N(c4ccccc4)C(=O)C3N2Nc2ccc(C(C)C)cc2)cc1OCc1ccccc1 (stereo not given) ? Its composite z-score was 0.129

Record `C=C(CCCC)/C(=C/C[C@@H](OC(C)=O)c1ccccc1OCCO)c1cnc2ccccc2c1` . Reported composite z-score: 0.082

For reference, reported composite z-score for `COC(=O)[C@@]1(Cc2ccccc2)[C@H]2c3cc(C(=O)N(C)C)n(CCSCCO)c3C[C@H]2CN1C(=O)c1ccccc1` stands at 0.138

Summary for this compound, O=C1C2C=CC(C(O)C3CCCCC3)N(Nc3ccc([N+](=O)[O-])cc3)C2C(=O)N1c1ccccc1 (stereo not given) : composite z-score is 0.455

Per the record, `NC(=O)[C@@H]1[C@H]2C(=O)O[C@H](c3ccccc3)[C@H](c3ccccc3)N2[C@H](c2ccc(O)cc2)[C@@]12C(=O)Nc1ccc(C#CC3(O)CCCCCC3)cc12` has composite z-score of -0.0544

For record `C=CCN1C(=O)[C@]2(O[C@H](CCO)[C@@H]([Si](C)(C)c3ccc(OC)cc3)[C@@H]2C)c2cc(N3CCCCC3=O)ccc21` the listed composite z-score is 0.0004

Memo: O=C1C2C=CC(C(O)c3ccc(F)cc3)N(Nc3ccccc3F)C2C(=O)N1c1ccccc1 (stereo not given) , reported composite z-score: 0.336

Sample `CC[C@@H]1C=C(C(=O)O)[C@H](c2ccco2)N1S(=O)(=O)c1ccc(C)cc1` ; composite z-score observed: -0.148

Short answer for CN1C2C=C(CCCO)C(C3C(=O)N(C(N)=O)C(=O)C32)C1c1ccc(CN2CCCC2)cc1 (stereo not given) : composite z-score was -0.189

// composite z-score value for `[N-]=[N+]=Nc1ccccc1C[C@@]1(C(=O)NCCN2CCOCC2)N=C(c2ccc(OCCCO)cc2)O[C@@H]1c1ccccc1` : 0.234

response.value for `COC(=O)[C@@]1(Cc2ccc(OC)cc2)[C@H]2c3cc(C(=O)N4CCCC4)n(Cc4ccc(OC)c(OC)c4)c3C[C@H]2CN1C(=O)c1ccccc1` (field: composite z-score) = 1.61

* * *

Hi there, I'd appreciate the recorded z-score for every entry that follows.
Assay: inhibitors of hydroxyurea-induced Chk1 phosphorylation, primary screen, imaging, HeLa, phospho-Chk1 antibody, percent positive cells (AID 1186)
Conditions: hydroxyurea-induced phospho-Chk1 immunofluorescence imaging, higher = more signal
Give your answer as a number; write no unit.

For CN1C(=O)C2C=CC(C(O)Cc3ccccc3)N(Nc3ccccc3)C2C1=O (stereo unspecified) the compound record lists z-score as -0.444

Recorded result, `COCC(=C=CC[C@H](O)c1ccccc1OCCO)C[C@H](O)c1cc(Cl)cc(Cl)c1O` , z-score: 1.36

Summary for this compound, C=CCC(OC(C)=O)[C@@H]1[C@@H](N(Cc2ccc(-c3cccc(C(F)(F)F)c3)o2)C(=O)Cc2ccc(F)cc2)c2cc(OCCCO)ccc2N1C(=O)Cc1ccc(OC)cc1 (stereo partly specified) : z-score is 0.0521

Please fill in: z-score reported for `COC(=O)c1c(CC[C@@H](CO)NC(=O)N[C@H](Cn2cc(Cc3ccccc3)nn2)C(C)C)oc(C(C)=O)c1C(=O)OC` = 1.02

Note to self: z-score recorded for `O=C1c2ccccc2[C@@]2(Cc3ccccc3N(CCN3CCOCC3)C2=O)[C@H](c2ccc(CO)cc2)N1Cc1ccccc1` was -0.305

Recorded z-score (compound `CO[C@H]1O[C@H](CO)[C@@H](OC(=O)Nc2ccc(Br)cc2)[C@H](OC(=O)c2cc3ccccc3[nH]2)[C@H]1OC(=O)c1cc2ccccc2[nH]1` ): -0.547
